study-target: T1, mouse programmed cell death protein 1 Fc fusion protein (mPD-1-Fc), mPD-1 C60S (aa 25-167) (Mus musculus, UniProt Q02242, stabilised)
T1 construct: not cleaved; source: Expi293F, purified (Protein A, SEC; dimeric fraction); not shown: Fc (human), C-terminal, kept
assay-info: SPR; Carterra LSA; Fab from the ammonium sulfate precipitate of the culture supernatant immobilised on a NiHC200M chip; hPD-1 (1-1024 nM) or mPD-1-Fc (4-1024 nM) as analyte, fourfold dilution series, no regeneration; HBS-EP pH 7.4, 25 °C; medians over the spots of a construct, KD = koff/kon
experimental-conditions: one partner purified
pKd: −log10 of the molar value.
measured-quantity: pKd

binder | recorded-result
toripalimab Fab L.V99N (Fab, V domains shown, as the heavy chain of Sm3; light chain of Sm3 with this change; numbers count from the chain's first residue; source: Brevibacillus, culture supernatant (ammonium sulfate precipitate); not shown: 6xHis, C-terminal, kept; 6xHN, C-terminal, kept) VH: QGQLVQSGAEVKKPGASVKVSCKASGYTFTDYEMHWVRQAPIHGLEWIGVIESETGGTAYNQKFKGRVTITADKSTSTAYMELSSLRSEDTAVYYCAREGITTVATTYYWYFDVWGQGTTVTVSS VL: DVVMTQSPLSLPVTLGQPASISCRSSQSIVHSNGNTYLEWYLQKPGQSPQLLIYKVSNRFSGVPDRFSGSGSGTDFTLKISRVEAEDVGVYYCFQGSHNPLTFGQGTKLEIK | 6.77
toripalimab Fab H.T55Y (Fab, V domains shown, heavy chain of Sm3 with this change; numbers count from the chain's first residue; as the light chain of Sm3; source: Brevibacillus, culture supernatant (ammonium sulfate precipitate); not shown: 6xHis, C-terminal, kept; 6xHN, C-terminal, kept) VH: QGQLVQSGAEVKKPGASVKVSCKASGYTFTDYEMHWVRQAPIHGLEWIGVIESEYGGTAYNQKFKGRVTITADKSTSTAYMELSSLRSEDTAVYYCAREGITTVATTYYWYFDVWGQGTTVTVSS VL: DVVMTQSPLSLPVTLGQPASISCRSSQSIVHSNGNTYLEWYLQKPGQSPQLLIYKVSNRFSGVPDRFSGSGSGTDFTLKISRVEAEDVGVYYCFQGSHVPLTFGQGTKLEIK | 7.45
toripalimab Fab L.L101V (Fab, V domains shown, as the heavy chain of Sm3; light chain of Sm3 with this change; numbers count from the chain's first residue; source: Brevibacillus, culture supernatant (ammonium sulfate precipitate); not shown: 6xHis, C-terminal, kept; 6xHN, C-terminal, kept) VH: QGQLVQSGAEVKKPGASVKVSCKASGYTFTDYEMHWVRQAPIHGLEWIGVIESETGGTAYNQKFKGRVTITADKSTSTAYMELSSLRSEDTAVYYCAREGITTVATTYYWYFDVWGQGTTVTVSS VL: DVVMTQSPLSLPVTLGQPASISCRSSQSIVHSNGNTYLEWYLQKPGQSPQLLIYKVSNRFSGVPDRFSGSGSGTDFTLKISRVEAEDVGVYYCFQGSHVPVTFGQGTKLEIK | 7.04
